Value source: ChEMBL document CHEMBL2434944

What growth at 10 µM was measured for each of the following?
System: IGROV-1
Measurement notes: Growth inhibition of human IGROV1 cells assessed as cell growth at 10^-5 M after 48 hrs by sulforhodamine B assay relative to control
Type: functional
Condition label: IGROV-1, 48 h, read-out: Activity
Numbers only, in %.

Example entries and their recorded answers appear below.
- Cc1ccc(-c2csc(=N)n2CC(=O)N2CCOCC2)cc1: 112
- Cc1ccc(-c2csc(=N)n2CC(=O)N2CCN(c3ccccc3)CC2)cc1: 93.2
- CC(=O)N1CCN(C(=O)Cn2c(-c3ccc(Cl)cc3)csc2=N)CC1: 100
- CN1CCN(C(=O)Cn2c(-c3ccccc3)csc2=N)CC1: 93.2
- CC(=O)N1CCN(C(=O)Cn2c(-c3ccc(C)cc3)csc2=N)CC1: 103

Could you report growth at 10 µM for every entry in the following list?
1. CC(=O)N1CCN(C(=O)Cn2c(-c3ccccc3)csc2=N)CC1
2. N=c1scc(-c2ccc(Cl)cc2)n1CC(=O)N1CCN(c2ccccc2)CC1
3. Cc1ccc(-c2csc(=N)n2CC(=O)N2CCN(C)CC2)cc1
4. N=c1scc(-c2ccc(Cl)cc2)n1CC(=O)N1CCOCC1
5. N=c1scc(-c2ccccc2)n1CC(=O)N1CCN(c2ccccc2)CC1

result:
95.6
101
111
90.4
98.9

Provide growth at 10 µM for all items below, preserving their order.
1. CN1CCN(C(=O)Cn2c(-c3ccc(Cl)cc3)csc2=N)CC1
2. N=c1scc(-c2ccccc2)n1CC(=O)N1CCOCC1

result:
[93.1, 86.7]
